- Test system: DMS-273
- Method Notes: NCI tumour cell line growth inhibition, 48 h
The source made the active and inactive calls. No stated cut-off is given here; in the data, active = GI50 up to about 1.1 µM and inactive = higher.
For each entry below, report its GI50 value.

Problem: Note GI50 for the compound shown: COc1ccc(/C(Cl)=C(\CN(C)C)c2ccc(OC)c(OC)c2)cc1OC
Solution: > 100 µM (inactive)

Problem: Note GI50 for the compound shown: CCN(CC)CCNc1ccc2nnn3c4ccccc4c(=O)c1c23
Solution: 3.66 µM (inactive)

Problem: Note GI50 for the compound shown: COc1cc2c(c(OC)c1)C1(CC(CC#N)C2)SCCS1 (stereo not given)
Solution: > 100 µM (inactive)

Problem: Note GI50 for the compound shown: O=C(Nc1ccn(CCI)c(=O)n1)c1ccccc1
Solution: > 100 µM (inactive)

Problem: Note GI50 for the compound shown: OC(CCl)CN1CC[N+]2(CC1)CC[N+]1(CCN(CC(O)CCl)CC1)CC2 (stereo not given) [PROSPIDIUM CHLORIDE]
Solution: > 50 µM (inactive)

Problem: Note GI50 for the compound shown: CN(C)CCC(=O)N1C/C(=C/c2ccccc2)C(=O)/C(=C\c2ccccc2)C1
Solution: 1.55 µM (inactive)

Problem: Note GI50 for the compound shown: CC(CN1CC(=O)NC(=O)C1)N1CC(=O)NC(=O)C1 (stereo not given)
Solution: 513 µM (inactive)

Problem: Note GI50 for the compound shown: CCOC(=O)CCn1ncc(Cl)c(Cl)c1=O
Solution: 9.46 µM (inactive)

Problem: Note GI50 for the compound shown: O=C1[C@@H]2C(c3ccccc3F)=NO[C@@H]2C(=O)N1c1ccc(Cc2ccc(N3C(=O)[C@H]4C(c5ccccc5F)=NO[C@H]4C3=O)cc2)cc1
Solution: > 100 µM (inactive)

Problem: Note GI50 for the compound shown: O=C(NC12CC3CC(CC(C3)C1)C2)C(=O)c1c[nH]c2ccc(Br)cc12
Solution: 4.54 µM (inactive)

====

- Test system: RPMI-8226
- Method Notes: NCI tumour cell line growth inhibition, 48 h
Activity calls are given as the source filed them. Rule as the data show it: active = GI50 up to about 1.1 µM and inactive = higher.
For each entry below, report its GI50 value.

Problem: Enter recorded GI50 with RPMI-8226 for COc1ccc2c(c1)CCc1[nH]c3ccccc3c1CCCC2 here.
Solution: > 10 µM (inactive)

Problem: Enter recorded GI50 with RPMI-8226 for O=C1CN(c2ccccc2)Cc2nc(Cl)ccc2N1 here.
Solution: > 100 µM (inactive)

Problem: Enter recorded GI50 with RPMI-8226 for CCOC(=O)[C@H]1O[C@@H]1C(=O)NC(CC(C)C)C(=O)NCCC(C)C (some centres undefined) here.
Solution: > 100 µM (inactive)

Problem: Enter recorded GI50 with RPMI-8226 for COc1ccc(-c2nc(O)c3ccccc3n2)c(OC)c1 here.
Solution: 29.1 µM (inactive)

====

For each entry below, report its GI50 value.
- System: SF-295
- Method Notes: NCI tumour cell line growth inhibition, 48 h
Active and inactive are the calls of the source. Cut-off read from the data, not from the text of the source: active = GI50 up to about 1.1 µM and inactive = higher.

Problem: Note GI50 for the compound shown: COC(=O)Cc1cc(O)c2c(c1O)C(=O)c1ccccc1C2=O
Solution: 27.6 µM (inactive)

Problem: Note GI50 for the compound shown: Cc1cccc(C)c1Nc1nc(C)c(C(=O)CC(=O)C(=O)Nc2c(C(C)C)cccc2C(C)C)s1
Solution: 58.5 µM (inactive)

Problem: Note GI50 for the compound shown: COC(=O)Cc1c(-c2c(CC(=O)OC)c3ccccc3n2C2OC(COC3OC(COC(C)=O)C(OC(C)=O)C(OC(C)=O)C3OC(C)=O)C(O)C(O)C2O)[nH]c2ccccc12 (stereo not given)
Solution: 36.6 µM (inactive)

Problem: Note GI50 for the compound shown: C[C@]12CC[C@H]3[C@@H](CC=C4C[C@@H](O)CC[C@@]43C)[C@@H]1C[C@H](N1CCOCC1)[C@@H]2O
Solution: > 100 µM (inactive)

Problem: Note GI50 for the compound shown: COc1ccc(/C=C/C(=O)c2cc(OC)cc(OC)c2)cc1
Solution: 1.24 µM (inactive)

====

- System: EKVX
- Method Notes: NCI tumour cell line growth inhibition, 48 h
Activity calls are given as the source filed them. Rule as the data show it: active = GI50 up to about 1.1 µM and inactive = higher.
Value Type: GI50

Problem: Note GI50 for the compound shown: CCOC(=O)c1cn2c(n1)sc1cc(C)c(C)cc12
Solution: 22.3 µM (inactive)

Problem: Note GI50 for the compound shown: Cc1ccc(S(=O)(=O)N(CC(O)COc2ccccc2)c2c(F)cccc2F)cc1 (stereo unspecified)
Solution: 23.3 µM (inactive)

Problem: Note GI50 for the compound shown: COc1ccc(CNC2=N/C(=C\c3ccccc3Cl)C(=O)N2C)cc1
Solution: 28.3 µM (inactive)

Problem: Note GI50 for the compound shown: CCN(CC)CCNc1ccc2nnn3c4ccccc4c(=O)c1c23
Solution: 4.13 µM (inactive)

Problem: Note GI50 for the compound shown: CCCCCCCCCCOCCOCCOCCOCCCCC(O)CCCCCCCC1=C[C@H](C)OC1=O (stereo partly specified)
Solution: 10.7 µM (inactive)

Problem: Note GI50 for the compound shown: COC(=O)C(C)NP(=O)(N1CC1)N1CC1 (stereo unspecified)
Solution: > 100 µM (inactive)

Problem: Note GI50 for the compound shown: COc1nc(/C=N/NC(N)=S)nc(OC)n1
Solution: > 100 µM (inactive)

Problem: Note GI50 for the compound shown: COC(=O)C12C3C4C5C3(C#N)C1C5(C(=O)OC)C42C(=O)N(C(C)C)C(C)C (stereo unspecified)
Solution: > 100 µM (inactive)

Problem: Note GI50 for the compound shown: Cc1ccc(C(=O)C#Cc2cn(C3CC(O)C(CO)O3)c(=O)[nH]c2=O)cc1 (stereo unspecified)
Solution: > 100 µM (inactive)

Problem: Note GI50 for the compound shown: C#CCN(C(=O)C(F)(F)F)C(/C=C\C(=O)OC)(C(=O)OCC)C(=O)OCC
Solution: > 100 µM (inactive)

Problem: Note GI50 for the compound shown: CC(=O)Nc1nc(NC(C)=O)c2nc(CO)[nH]c2n1
Solution: > 100 µM (inactive)

Problem: Note GI50 for the compound shown: CCOc1cc2c(cc1O)/C(=N\O)C[C@@H]1[C@@H]2CC[C@]2(C)[C@@H](O)CC[C@@H]12
Solution: 55.2 µM (inactive)

Problem: Note GI50 for the compound shown: Oc1cccc2c(Br)ccnc12
Solution: 2.88 µM (inactive)

Problem: Note GI50 for the compound shown: O=C(c1ccccc1)C1OC12C(=O)Nc1ccccc12 (stereo unspecified)
Solution: 47.6 µM (inactive)

Problem: Note GI50 for the compound shown: NC1=CN(Cc2ccccc2)C2=N/C(=C\c3ccccc3O)C(=O)N12
Solution: 52.1 µM (inactive)

Problem: Note GI50 for the compound shown: O=C1C=CC2(O)OCC3C=C4O[C@@H]5OC6(CCCCC6)O[C@@H]5C4[C@@H]2[C@@H]13 (stereo partly specified)
Solution: 38.3 µM (inactive)

====

- System: CCRF-CEM
- Method Notes: NCI tumour cell line growth inhibition, 48 h
Activity calls are given as the source filed them. Cut-off read from the data, not from the text of the source: active = GI50 up to about 1.1 µM and inactive = higher.
Hello, when you answer, please use one of the following outcomes: active, inactive

Problem: Which outcome was assigned to COc1cc2c(cc1OC)C(C(=O)c1cccc(OC)c1OC)C(=O)N(C)CC2 (stereo not drawn) in this test?
Solution: inactive

Problem: Which outcome was assigned to CCCCCC(=O)Cc1cc(OC)cc2c1C(=O)Oc1cc(O)c(C(=O)O)c(CC(=O)CCCCC)c1O2 in this test?
Solution: inactive

Problem: Which outcome was assigned to Cc1ccc(NC(=O)CC(=O)N2N=C(N(c3ccccc3)c3ccccc3)CC2c2ccccc2)cc1 (stereo not drawn) in this test?
Solution: inactive

Problem: Which outcome was assigned to COC(=O)CSc1ccccc1 in this test?
Solution: inactive

Problem: Which outcome was assigned to CN1CCN(CCCCN2c3ccccc3Sc3ccc(C(=O)c4ccccc4)cc32)CC1 in this test?
Solution: inactive

Problem: Which outcome was assigned to COC1=C(Cl)C(=O)c2c(O)ccc(O)c2C1=O in this test?
Solution: active

Problem: Which outcome was assigned to COC1/C(=C\C(=O)OC(C)(C)C)c2ccccc2N1C(C)=O (stereo not drawn) in this test?
Solution: inactive

Problem: Which outcome was assigned to CCCCOc1ccc(S(=O)(=O)N/C(=N\O)Nc2ccc(Cl)cc2)cc1 in this test?
Solution: inactive

Problem: Which outcome was assigned to COC(=O)C(C(=O)C(=O)Nc1ccccc1OC)c1csc(-n2nc(-c3ccccc3)cc2-c2ccccc2)n1 (stereo not drawn) in this test?
Solution: inactive

Problem: Which outcome was assigned to COc1ccc2oc(OC)c(CC=C(C)C)c(=O)c2c1C in this test?
Solution: inactive

Problem: Which outcome was assigned to CC1=C(C(=O)Nc2cc(=O)n(C)c(=O)n2C)C(c2ccco2)C(C(=O)Nc2cc(=O)n(C)c(=O)n2C)=C(C)N1 in this test?
Solution: inactive

Problem: Which outcome was assigned to CSc1nc(NC2OC(COC(C)=O)C(OC(C)=O)C(OC(C)=O)C2OC(C)=O)c(-c2csc(N)n2)c(=O)n1C (stereo not drawn) in this test?
Solution: inactive

Problem: Which outcome was assigned to CSc1nnc2n1-c1ccccc1SCC2 in this test?
Solution: inactive

Problem: Which outcome was assigned to CC1(C)CC[C@]2(C(=O)O)CC[C@]3(C)C(=CC[C@@H]4[C@@]5(C)CC[C@H](OC6OC(CO)C(O)C(O)C6O)C(C)(C)[C@@H]5CC[C@]43C)[C@@H]2C1 (stereo partly drawn) in this test?
Solution: inactive

Problem: Which outcome was assigned to COc1ccc(OC)c2[s+]snc12 in this test?
Solution: inactive

Problem: Which outcome was assigned to CC1(C)N=C(c2ccccc2)SC12S[C@@H]1CCCC[C@H]1S2 in this test?
Solution: inactive

Problem: Which outcome was assigned to C/C(=N\Nc1nc2cccnc2s1)c1ccccn1 in this test?
Solution: active

Problem: Which outcome was assigned to COC(=O)/C(=C/c1ccc(OC)cc1)NC(=O)c1ccccc1 in this test?
Solution: inactive
